# Test system: KB-3-1
# Measurement protocol: Cytotoxic Profiling of Annotated Libraries Using Quantitative High-Throughput Screening (AID 1296008); also: % is scaled to controls: 0 for no effect and ±100 for the full control effect; nearly all actives have a fitted effect of over 60% in size
# Protocol conditions: Five cell lines viability, CellTiter-Glo ATP luminescence, 48-72 h; stronger effect = lower value
Records with an inconclusive call do not appear. Calls of active or inactive are those of the source. Calls follow the shape of the dose curve; as a rule, active = well fitted inhibition curve with a large enough effect; inconclusive = small, poorly fitted or top-dose-only effect; inactive = flat fitted curve, though single readings scatter.
# Lookup of reported max response keyed by entry

Sample records with max response:
Molecule	Target or system	max response
CN1C(=O)C(Cc2ccc3ccccc3c2)N=C(c2ccc(O)cc2)c2cc(Cl)ccc21 (centres undefined)	KB-3-1	-24.1% (inactive)
CCOC(=O)C1(CCc2ccccc2)CCN(Cc2ccc(NC(C)=O)cc2)CC1	KB-3-1	-17.7% (inactive)
COC1(C[S@@](=O)c2ccccc2)CCN(CCc2c[nH]c3ccc(F)cc23)CC1	KB-3-1	6.86% (inactive)
O=C1N[C@@H](Cc2ccccc2)CN2CCCC[C@@H]12	KB-3-1	1.17% (inactive)
CC1CCCC(O)CC(=O)Cc2cc(O)cc(O)c2C(=O)O1 (centres undefined)	KB-3-1	8.3% (inactive)
CCOP(=O)(OCC)Oc1ccc2c(C)cc(=O)oc2c1	KB-3-1	-1.13% (inactive)
CC(C)[C@H](NC(=O)c1nn(Cc2ccc(F)cc2)c2ccccc12)C(N)=O	KB-3-1	0.24% (inactive)
Oc1ccc2c3c1O[C@H]1c4[nH]c5c(N=C=S)cccc5c4C[C@@]4(O)[C@@H](C2)N(CC2CC2)CC[C@]314	KB-3-1	-18.9% (inactive)

# max response (molecule: CC(C)C[C@H]1C(=O)N2CCC[C@H]2[C@]2(O)O[C@](NC(=O)[C@@H]3C[C@@H]4c5cccc6[nH]cc(c56)C[C@H]4N(C)C3)(C(C)C)C(=O)N12 ) is -14.2% (inactive)

Form: molecule = C[C@H]1CN(Cc2ccc(CC(=O)N3CCC(Nc4cccc(F)c4)CC3)cc2)CCN1 ; max response = -18.3% (inactive)

max response measured on Cc1ccc2c(c1)[C@]13CCCC[C@@H]1[C@H](C2)N(C)CC3 = -5.13% (inactive)

Documented max response of COc1cc(O)c2c(c1)/C=C/C[C@@H](O)[C@@H](O)C(=O)CCC[C@H](C)OC2=O : 5.8% (inactive)

max response reading for Oc1ccc2c(c1)C13CCCC[C@H]1[C@@H](C2)N(CC1CCC1)CC3 : -12.4% (inactive)

Note to self: max response recorded for C=C1[C@@]23C(=O)O[C@H](C)[C@]24O[C@@]2(C(=C)[C@]5(C=CC(=O)OC5(C)C)CC[C@]32C)[C@H](O)[C@@]1(C)OC4=O was -4.55% (inactive)

Looking up CC[C@H]1C2CC3[C@@H]4N(C)c5ccccc5[C@]45C[C@@H]([C@H]2[C@H]5O)N3[C@@H]1O , I found its max response recorded as 0.117% (inactive)

Sure, the documented max response for c1ccc([C@@H]2C[C@H]2NC2CCNCC2)cc1 is -11.5% (inactive)

Looking up C[C@@H](N)C(=O)c1ccccc1 , I found its max response recorded as 2.24% (inactive)

Value of measured max response for the entry COC(=O)C12C(=O)C(C)(O)C(=O)C1(C)C(C)=CC1C34CCC(OC3=O)C(C)(C)C4CCC12C (centres undefined) : -12.2% (inactive)

So for Cc1c(N2C(=O)[C@@H]3[C@H](O)CCN3C2=O)ccc(C#N)c1Cl , the logged max response turned out to be -9.81% (inactive)

For OCCN(CCO)CCO the molecule record lists max response as 0.954% (inactive)

For record CN1C2CCC1CC(OC(=O)N1Cc3ccccc3NC1=O)C2 (centres undefined) the listed max response is -1.51% (inactive)

Record summary for O.O.O.O=C([O-])C(O)C(O)C(=O)[O-].O=C([O-])C(O)C(O)C(=O)[O-].[K+].[K+].[Sb].[Sb] (centres undefined) : reported max response = -33.9% (inactive)

Reported max response ( CC(N)Cc1ccc2c(c1)OCO2 (centres undefined) ) = -15.3% (inactive)

// max response value for CCC(C)C1NC(=O)C(C(C)=O)=C1O (centres undefined) : -22.8% (inactive)

###

# Measurement protocol: Primary fluorescence-based thiol-reactive (MSTI) qHTS assay for identification of artifact compounds. (AID 1845221); also: nearly all actives have a fitted effect of over 65% in size
# Protocol conditions: MSTI thiol-reactivity probe, 1 h; series mostly up to 53.8 µM
Results filed as inconclusive are left out. Active and inactive are the calls of the source. Calls follow the shape of the dose curve; as a rule, active = well fitted inhibition curve with a large enough effect; inconclusive = small, poorly fitted or top-dose-only effect; inactive = no such curve, though single readings can be large or run the other way.
Entry note: the call must match one of active, inactive

Example entries begin here.
Molecule	Discrete label
CC/C=C/C=C/C1(C)OC(OC)=C(C(=O)C2C(C)C(=O)c3cc(OC)c(O)c(O)c3C2(C)O)C1=O (stereo unspecified)	active
CN1C[C@@H]2CN(c3ccc(-c4ccccc4)nn3)C[C@@H]2C1	inactive
CC(=O)OC[C@]12C[C@H](OC(C)=O)C(C)=C[C@H]1O[C@@H]1[C@H](O)[C@@H](O)[C@@]2(C)[C@]12CO2	inactive
Cc1ccc(Cn2nc(C(=O)N[C@@H]3C(C)(C)[C@@H]4CC[C@@]3(C)C4)cc2-c2ccc(Cl)c(C)c2)cc1	inactive

**Query** # lookup: test call for CC1=CC2/C=C(\C)CCC(O)C(O)/C=C/C(=O)OC23C(=O)NC(CC(C)C)C3C1C (stereo unspecified)
**Result** inactive

**Query** Lab log entry: CN(C(=O)CN1C(=O)COc2cc(Cl)c(Cl)cc21)[C@@H](CN1CCCC1)c1ccc(-c2cccc(C(N)=O)c2)cc1 — outcome as called in the assay?
**Result** inactive

**Query** Please share the test call associated with COC1C=CC23c4cc5c(cc4COC2(O)CN(C)C3C1)OCO5 (stereo unspecified) .
**Result** inactive

**Query** // outcome(item) with item = CC(=O)OC[C@]12C[C@H](O)C(C)=C[C@H]1O[C@@H]1[C@H](O)[C@@H](OC(C)=O)[C@@]2(C)[C@]12CO2
**Result** inactive

**Query** Which result was noted for this molecule in the test: NNC(=O)c1nn(Cc2ccc(Cl)cc2Cl)c2ccccc12
**Result** inactive

**Query** Give the logged outcome of this assay for the following molecule: CC[C@@]1(O)C(=O)OCc2c1cc1n(c2=O)Cc2cc3c(OC)cccc3nc2-1
**Result** inactive

**Query** For C[C@]12CC[C@H](O[C@@H]3O[C@H](CO)[C@@H](O)[C@H](O)[C@H]3O)CC1=CC[C@@H]1C2CC[C@]2(C)[C@@H](C3=CC(=O)OC3)CC[C@]12O (stereo partly specified) , what call appears in the results of this test?
**Result** inactive

###

# Tested on: CAOV3
# Measurement protocol: Primary qHTS to identify gynecologic anti-cancer compounds using libraries of approved drugs and bioactive compounds (AID 1345084); also: % is scaled to controls: 0 for no effect and ±100 for the full control effect; nearly all actives have a fitted effect of over 55% in size
# Protocol conditions: Gynecologic cancer cell panel viability, ATPlite luminescence, 48 h; series mostly up to 57.5 µM
Inconclusive results are not listed. Activity calls are given as the source filed them. The call rests on the fitted dose curve; in most records, active means well fitted cell-killing curve with a large enough effect; inconclusive means small, poorly fitted or top-dose-only effect, or effect the other way; inactive means flat fitted curve, though single readings scatter.

Molecule	outcome
CCC1(O)CCC2C3CCC4=CC(=O)CCC4C3CCC21CC (stereo not drawn)	inactive
N#Cc1ccc([C@H]2CCCC[C@H]2O)cc1C(F)(F)F	inactive
COc1cc2c(cc1O)C1(C)CCC(O)C(C)(C)C1CC2=O (stereo not drawn)	inactive

###

# Measurement protocol: qHTS Assay for Lipid Storage Modulators (AID 1519)
# Protocol conditions: Drosophila S3 cells, BODIPY lipid droplet/cell ratio, laser cytometry; measured here: lipid channel max response; cells loaded with oleic acid
# Description: NIH Molecular Libraries Probe Production Centers Network [MLPCN] NIH Chemical Genomics Center [NCGC] Assay Submitter (PI): Beller, Mathias; Max-Planck-Institut fur Biophysikalische Chemie […] We dispensed 4 uL of cells at 1.25 x 10^6 cells/mL into LoBase Aurora COC 1,536-well plates (black walled, clear bottom) with a bottle-valve solenoid-based dispenser (Aurora) to obtain 5,000 cells/well. […] The ratio of the total intensity in PMT channel 1 over total intensity of channel 3 was also calculated. […]
Records with an inconclusive call do not appear.
Measurement name: max response (%)
Write the answer as a number in %, unit excluded.

Illustrative cases are given below, each with its answer.
Compound	Unit label	max response
Cc1o[nH]c(=O)c1C[C@@H](N)C(=O)O	%	0.175
CN1C(=O)CCS(=O)(=O)[C@H]1c1ccc(Cl)cc1	%	2.79
C=C(C)[C@H]1CN[C@H](C(=O)O)[C@@H]1CC(=O)O	%	-4.1
N[C@@H](CCP(=O)(O)O)C(=O)O	%	-9.13
C[C@@H](C(=O)OC1C[C@H]2CC[C@@H](C1)N2C)c1ccc(Br)cc1 (some centres undefined)	%	16.9
CC(C)[C@@H]1CN[C@H](C(=O)O)[C@@H]1CC(=O)O	%	17.2
CN1C(=O)COc2c(C(=O)N[C@@H]3CN4CCC3CC4)cc(Cl)cc21	%	11.3
O=c1c(O)c(-c2ccc(O)c(O)c2)oc2c(O)c(O)cc(O)c12	%	12.9

The reported max response of the compound N[C@H](C(=O)O)c1cc(=O)[nH]o1 was -3.59

meta.source: PubChem BioAssay (NCATS)
